Target: T1, human EpCAM on cells (CHO-K1 cells transfected with human EpCAM; EpCAM+ tumour cell lines) (human, UniProt P16422 24-314)
T1 construct: whole, on cells; also called CHO-K1-huEpCAM cells; cell-surface EpCAM
T1 sequence (looked up): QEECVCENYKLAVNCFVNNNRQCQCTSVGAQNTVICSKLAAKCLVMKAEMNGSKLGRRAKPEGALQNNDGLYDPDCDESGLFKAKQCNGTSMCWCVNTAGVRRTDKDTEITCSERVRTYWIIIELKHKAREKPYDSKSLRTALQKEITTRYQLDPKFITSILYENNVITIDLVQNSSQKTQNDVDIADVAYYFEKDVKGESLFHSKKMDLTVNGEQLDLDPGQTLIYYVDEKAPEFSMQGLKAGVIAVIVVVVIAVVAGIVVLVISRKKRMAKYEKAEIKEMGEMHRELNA
Assay: flow cytometry on CHO-K1 cells transfected with human EpCAM

{"binder": "mAb-35 (chimeric anti-EpCAM antibody) (antibody, V domains shown) VH: EVQLQQSVAELVRPGASVKLSCTASGFNIKNTYMHWVKQRPEQGLEWIGRIAPANGNTKYAPKFQDKATITANTSSNTAYLQLGSLTSEDTAIYYCAFIYQLPYWGQGTTLTVSS VL: DIVLTQSPASLAVSLGQRATISCRASESVDNYGISFMHWFQQKPGQPPKLLIFRASSLESGIPARFSGSGSRTDFTLTINPVETDDVATYYCQQSYKDPWTFGGATKLEIK", "binding result": "binds"}
{"binder": "mAb-39 (chimeric anti-EpCAM antibody) (antibody, V domains shown) VH: QIQLVQSGPELKKPGETVKISCKASGYTFTSYGVTWVKQAPGKGLKWMGWINTYSGVPTYADDFKGRFAFSLETSASTAYLQINNLKNEDTATYFCARSHSNYDFWGQGTTLTVSS VL: DIVMTQSQKFMSTTVGDRVSITCQASQNVGTDVGWYQQKPGQSPKLLIYSASNRYTGVPDRFTGSGSGTDFTLTISNMQSEDLADYFCQQYSSYPRTFGGGTKLEIK", "binding result": "binds"}
{"binder": "mAb-33 (chimeric anti-EpCAM antibody) (antibody, V domains shown) VH: EVLLQQSVADLVRPGASVKLSCTASGLNIKNTYIHWVKQMPEQGLEWIGRIGPANGNTKYAPKFQGKATITADTSSDTAYLQLSSLTSEDTAIYYCALAYYRIYWGQGTTLTVSS VL: DIVLTQSPASLAVSLGQRATISCRASESVDNSGISFMHWYQQKPGQSPKLLIYRASNLESGIPARFSGSGSRTDFTLTINPVETDDVATYYCQQSYENPWTFGGGTKLEIK", "binding result": "binds"}
